Target: Tyrosine-protein kinase Tec (Homo sapiens) (UniProt P42680)
Sequence (P42680 whole entry): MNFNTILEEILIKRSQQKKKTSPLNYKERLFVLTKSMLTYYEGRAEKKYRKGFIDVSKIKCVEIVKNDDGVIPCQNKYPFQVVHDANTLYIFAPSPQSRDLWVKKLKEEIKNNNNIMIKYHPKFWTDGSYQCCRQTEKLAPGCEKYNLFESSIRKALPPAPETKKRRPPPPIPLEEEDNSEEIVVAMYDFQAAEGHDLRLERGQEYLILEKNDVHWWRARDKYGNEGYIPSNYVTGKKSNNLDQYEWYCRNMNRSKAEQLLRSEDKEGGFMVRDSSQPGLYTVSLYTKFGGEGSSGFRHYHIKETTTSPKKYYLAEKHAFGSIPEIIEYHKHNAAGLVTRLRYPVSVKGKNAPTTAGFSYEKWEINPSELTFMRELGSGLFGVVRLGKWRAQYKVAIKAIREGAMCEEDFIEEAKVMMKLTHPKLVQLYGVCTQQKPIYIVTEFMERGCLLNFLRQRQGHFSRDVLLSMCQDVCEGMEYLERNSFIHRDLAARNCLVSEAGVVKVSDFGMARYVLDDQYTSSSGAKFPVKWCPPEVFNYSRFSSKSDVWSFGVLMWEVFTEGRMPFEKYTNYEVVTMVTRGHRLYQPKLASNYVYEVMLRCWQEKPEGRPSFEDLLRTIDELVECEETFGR
Conditions: at 10 µM
Lab note: anything with residual activity at or over 60% counts as YES; the rest go in NO.

1) O=C1Nc2cc(Br)ccc2/C1=C1/Nc2ccccc2/C1=N\O NO
2) CN(C)CCCn1cc(C2=C(c3c[nH]c4ccccc34)C(=O)NC2=O)c2ccccc21 YES
3) Cc1cc(Nc2nc(-c3ccccc3)nc3ccccc23)n[nH]1 NO

Task: Please indicate if the recorded residual activity for O=[N+]([O-])c1ccc(-c2nc(-c3ccc(F)cc3)c(-c3ccncc3)[nH]2)cc1 meets or exceeds 60%.
Result: YES

Task: Entry CCN(CC)C(=O)c1ccc(Nc2nc(OCC3CCCCC3)c3nc[nH]c3n2)cc1 : is its residual activity no less than 60%?
Result: NO

====

Target: Serine/threonine-protein kinase MRCK beta (Homo sapiens)
Settings: at 10 µM
measured-endpoint: residual activity

Task: # lookup: residual activity of CC(=O)O/N=C1\C(=C2\C(=O)Nc3cc(Br)ccc32)Nc2ccccc21
Result: 91%

Task: Requested field: residual activity. Item: Cc1cc2ncc(-c3ccccc3)nc2cc1C
Result: 88%

Task: Please report the recorded residual activity for c1ccc(-c2n[nH]cc2-c2ccnc3ccccc23)nc1 .
Result: 87%

Task: // lookup residual activity for O=C(Nc1cccc(Nc2nccc(Nc3cccc(C(F)(F)F)c3)n2)c1)C1CC1
Result: 88%

====

residual activity: recorded values
Target: Protein kinase C alpha type (Homo sapiens)
Details: at 1 µM
Please reply with the bare figure in % and do not write the unit itself.

1. COc1cccc(-c2cc(=O)c3ccccc3o2)c1N 113
2. O=C(Nc1cccc(Nc2nccc(Nc3cccc(C(F)(F)F)c3)n2)c1)C1CC1 95
3. O=C(O)c1ccc2c3c1cccc3c(=O)n1c3ccccc3nc21 99
4. CCC(=O)Nc1ccc2ncnc(Nc3cccc(Br)c3)c2c1 100
5. O=C1NC(=O)/C(=C\c2ccc3nccnc3c2)S1 108

Task: // returns reported residual activity for input O=c1cc(-c2cccc3c2Sc2ccccc2S3)oc(N2CCOCC2)c1
Result: 95

Task: Which residual activity value is on record for N#C/C(=C(\N)Sc1ccc(N)cc1)c1ccccc1C(F)(F)F ?
Result: 107

Task: Which residual activity reading was recorded for the molecule CN(C)c1ccc(/C=C2\C(=O)Nc3ccccc32)cc1 ?
Result: 103

Task: Reported residual activity, molecule Cc1cc2ncc(-c3ccccc3)nc2cc1C : ____
Result: 106

Task: Could you share which residual activity value was measured for COc1cc2ncnc(Nc3ccc(Oc4ccccc4)cc3)c2cc1OC ?
Result: 91

Task: Give the measured residual activity of Oc1ccc(Nc2nc(-c3ccc(Cl)cc3)cs2)cc1 .
Result: 110

Task: Request the reported residual activity associated with C[C@@H](N)[C@H]1CC[C@H](C(=O)Nc2ccncc2)CC1
Result: 94

Task: Data request, read-out residual activity, for COc1ccc(S(=O)(=O)N(CCO)c2ccccc2CN(C)C/C=C/c2ccc(Cl)cc2)cc1
Result: 107

Task: Which residual activity is listed for CCN(CC)CCCCN1c2ccccc2Oc2ccc(Cl)cc21 ?
Result: 112

Task: residual activity lookup needed for Nc1ccc2ncnc(NCCc3ccc(Oc4ccccc4)cc3)c2c1 , thanks.
Result: 103

Task: What measured residual activity goes with Cc1ccc(NC2=CC(=O)c3sc(C)nc3C2=O)cc1 ?
Result: 106

Task: Report residual activity for O=[N+]([O-])c1ccc(-c2nc(-c3ccc(F)cc3)c(-c3ccncc3)[nH]2)cc1 please.
Result: 110

Task: residual activity lookup needed for N#Cc1cnc2cnc(NCc3cccnc3)cc2c1Nc1ccc(F)c(Cl)c1 , thanks.
Result: 98

Task: # input molecule: CO[C@@H]1[C@H](N(C)C(=O)c2ccccc2)C[C@H]2O[C@]1(C)n1c3ccccc3c3c4c(c5c6ccccc6n2c5c31)C(=O)NC4 ; wanted: its residual activity
Result: 36

====

Target: Tyrosine-protein kinase JAK2 (Homo sapiens) (UniProt O60674)
Sequence (O60674 whole entry): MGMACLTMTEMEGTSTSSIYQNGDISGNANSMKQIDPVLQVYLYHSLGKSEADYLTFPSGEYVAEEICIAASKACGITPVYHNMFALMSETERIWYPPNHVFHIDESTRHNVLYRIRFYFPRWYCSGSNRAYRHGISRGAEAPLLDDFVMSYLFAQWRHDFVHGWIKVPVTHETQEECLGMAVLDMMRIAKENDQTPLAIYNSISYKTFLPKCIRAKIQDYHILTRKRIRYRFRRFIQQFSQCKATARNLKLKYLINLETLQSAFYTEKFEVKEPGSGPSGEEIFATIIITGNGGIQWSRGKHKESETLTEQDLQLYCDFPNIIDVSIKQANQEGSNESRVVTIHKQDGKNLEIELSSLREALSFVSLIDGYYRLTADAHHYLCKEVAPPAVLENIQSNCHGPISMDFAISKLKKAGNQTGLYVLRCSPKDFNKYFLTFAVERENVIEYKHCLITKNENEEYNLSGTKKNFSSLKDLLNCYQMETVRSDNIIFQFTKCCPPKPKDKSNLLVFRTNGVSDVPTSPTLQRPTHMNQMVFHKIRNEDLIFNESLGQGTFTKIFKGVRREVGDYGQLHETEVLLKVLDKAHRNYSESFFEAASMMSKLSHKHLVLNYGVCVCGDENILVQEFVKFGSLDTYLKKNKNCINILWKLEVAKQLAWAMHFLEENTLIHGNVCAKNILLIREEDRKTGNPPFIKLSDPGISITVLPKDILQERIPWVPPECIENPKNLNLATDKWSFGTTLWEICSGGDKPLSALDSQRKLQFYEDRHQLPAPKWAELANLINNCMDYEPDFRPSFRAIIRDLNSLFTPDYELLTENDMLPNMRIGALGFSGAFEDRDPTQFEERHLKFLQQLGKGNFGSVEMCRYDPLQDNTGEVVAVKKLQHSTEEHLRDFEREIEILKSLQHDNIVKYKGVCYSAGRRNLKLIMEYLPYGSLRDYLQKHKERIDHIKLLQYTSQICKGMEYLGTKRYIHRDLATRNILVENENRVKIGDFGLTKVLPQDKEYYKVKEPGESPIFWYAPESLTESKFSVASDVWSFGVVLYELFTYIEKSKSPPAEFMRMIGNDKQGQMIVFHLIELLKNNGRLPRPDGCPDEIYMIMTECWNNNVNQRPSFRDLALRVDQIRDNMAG
Conditions: at 1 µM
measured-endpoint: residual activity (%)
Hi! Could you send only the number? It should be in %, unit omitted.

1) Ic1cccc(CSc2nnc(-c3ccncc3)o2)c1 86
2) O=C(O)c1ccc2c3c1cccc3c(=O)n1c3ccccc3nc21 100
3) Cc1ccc(S(=O)(=O)/C=C/C#N)cc1 99

Task: Query (compound): COc1ccc(CNc2nc(N(CCO)CCO)nc3c2ncn3C(C)C)cc1 ; field requested: residual activity
Result: 91

Task: Given the compound CN(C)c1ccc(/C=C2\C(=O)Nc3ccccc32)cc1 , what is its reported residual activity?
Result: 115

====

Quick reference for residual activity among some molecules
Biological target: Serine/threonine-protein kinase MRCK alpha (Homo sapiens) (UniProt Q5VT25)
Sequence (Q5VT25 whole entry): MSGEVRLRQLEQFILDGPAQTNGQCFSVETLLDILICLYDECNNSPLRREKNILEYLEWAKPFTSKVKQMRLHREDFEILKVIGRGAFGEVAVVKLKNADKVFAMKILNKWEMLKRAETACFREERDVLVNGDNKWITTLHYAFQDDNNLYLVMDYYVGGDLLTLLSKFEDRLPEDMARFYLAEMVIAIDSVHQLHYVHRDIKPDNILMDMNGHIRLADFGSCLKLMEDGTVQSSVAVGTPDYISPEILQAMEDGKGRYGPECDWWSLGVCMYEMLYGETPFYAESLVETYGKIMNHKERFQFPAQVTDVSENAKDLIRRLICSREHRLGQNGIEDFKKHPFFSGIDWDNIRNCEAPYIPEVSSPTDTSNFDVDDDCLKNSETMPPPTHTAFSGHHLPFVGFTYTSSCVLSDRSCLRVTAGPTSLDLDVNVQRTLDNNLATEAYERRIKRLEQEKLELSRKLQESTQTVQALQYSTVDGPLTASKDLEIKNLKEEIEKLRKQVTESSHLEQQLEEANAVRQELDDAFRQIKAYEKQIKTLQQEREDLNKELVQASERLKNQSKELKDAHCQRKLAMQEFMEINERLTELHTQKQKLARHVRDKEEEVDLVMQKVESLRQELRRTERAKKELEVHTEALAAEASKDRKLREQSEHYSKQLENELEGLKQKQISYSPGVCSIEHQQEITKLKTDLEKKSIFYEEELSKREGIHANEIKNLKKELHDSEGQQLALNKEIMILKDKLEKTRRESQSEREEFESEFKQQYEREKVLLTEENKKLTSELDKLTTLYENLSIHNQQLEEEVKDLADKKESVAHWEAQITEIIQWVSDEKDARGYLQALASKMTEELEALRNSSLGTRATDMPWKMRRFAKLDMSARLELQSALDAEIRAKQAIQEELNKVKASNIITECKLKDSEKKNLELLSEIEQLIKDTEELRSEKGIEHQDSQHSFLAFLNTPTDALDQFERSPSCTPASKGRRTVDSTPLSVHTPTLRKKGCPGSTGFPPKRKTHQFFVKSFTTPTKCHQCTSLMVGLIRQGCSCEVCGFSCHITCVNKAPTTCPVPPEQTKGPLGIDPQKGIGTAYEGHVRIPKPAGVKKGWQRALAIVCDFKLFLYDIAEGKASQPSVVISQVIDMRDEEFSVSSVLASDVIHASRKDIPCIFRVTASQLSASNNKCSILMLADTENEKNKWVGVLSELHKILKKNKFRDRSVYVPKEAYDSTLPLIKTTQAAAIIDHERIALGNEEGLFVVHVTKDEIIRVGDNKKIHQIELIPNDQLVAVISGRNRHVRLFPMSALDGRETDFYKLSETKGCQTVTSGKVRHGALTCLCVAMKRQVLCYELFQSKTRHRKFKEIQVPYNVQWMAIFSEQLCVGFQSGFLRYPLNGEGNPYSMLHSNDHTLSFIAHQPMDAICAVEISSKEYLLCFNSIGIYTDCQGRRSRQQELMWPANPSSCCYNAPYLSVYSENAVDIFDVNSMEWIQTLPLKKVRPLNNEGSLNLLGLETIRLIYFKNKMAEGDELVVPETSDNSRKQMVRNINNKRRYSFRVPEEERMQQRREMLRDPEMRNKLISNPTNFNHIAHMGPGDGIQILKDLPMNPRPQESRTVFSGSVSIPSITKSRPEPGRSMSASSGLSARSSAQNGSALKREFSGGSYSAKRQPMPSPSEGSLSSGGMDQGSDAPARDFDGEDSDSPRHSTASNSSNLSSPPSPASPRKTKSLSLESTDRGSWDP
Settings: at 1 µM
Write the answer as a number in %, unit excluded.

The following molecules have reported results that may help.
1. CC(=O)c1ccc(N2CCOCC2)cc1O 105
2. CCN(CC)C(=O)c1ccc(Nc2nc(OCC3CCCCC3)c3nc[nH]c3n2)cc1 99
3. CC(C)n1cnc2/c(=N/c3cccc(Cl)c3)nc(NCCO)[nH]c21 108
4. Cn1nc2c3c(cccc31)C(=O)c1ccccc1-2 108
5. O=c1c2ccccc2[nH]c(=S)n1CCN1CCC(=C(c2ccc(F)cc2)c2ccc(F)cc2)CC1 107

Task: For Serine/threonine-protein kinase MRCK alpha (Homo sapiens) (UniProt Q5VT25), provide residual activity of Cc1nc(-c2ccccc2)c(-c2ccncc2)o1 please.
Result: 114

Task: Missing value: residual activity, Serine/threonine-protein kinase MRCK alpha (Homo sapiens) (UniProt Q5VT25), entry CC(C)n1cnc2c(NCc3ccccc3)nc(NCCCO)nc21 . Fill in?
Result: 86

Task: State its residual activity on Serine/threonine-protein kinase MRCK alpha (Homo sapiens) (UniProt Q5VT25): O=C1NC(=O)c2cc(Nc3ccc(F)cc3)c(Nc3ccc(F)cc3)cc21
Result: 100

Task: Report residual activity for CO[C@H]1C[C@@H]2CC[C@@H](C)[C@@](O)(O2)C(=O)C(=O)N2CCCC[C@H]2C(=O)O[C@H]([C@H](C)C[C@@H]2CC[C@@H](O)[C@H](OC)C2)CC(=O)[C@H](C)/C=C(\C)[C@@H](O)[C@@H](OC)C(=O)[C@H](C)C[C@H](C)/C=C/C=C/C=C/1C tested on Serine/threonine-protein kinase MRCK alpha (Homo sapiens) (UniProt Q5VT25).
Result: 118

Task: # get_value(readout= residual activity, system= Serine/threonine-protein kinase MRCK alpha (Homo sapiens) (UniProt Q5VT25)) for O=C1NC(=O)/C(=C/c2ccc3c(c2)OC(F)(F)O3)S1
Result: 112

====

Target: Protein kinase C beta type (Homo sapiens)
Settings: at 1 µM
measured-endpoint: residual activity (%)
State the answer as a number, implicitly in %.

compound	quantity-unit	residual activity
NC(=O)c1ccc2[nH]c(-c3ccc(Oc4ccc(Cl)cc4)cc3)nc2c1	%	111
CC(=O)O/N=C1\C(=C2\C(=O)Nc3cc(Br)ccc32)Nc2ccccc21	%	122
O=C1Nc2ccccc2/C1=C1/Nc2ccccc2/C1=N\OCCC(O)CO (configuration not stated)	%	108
O=c1c2ccccc2[nH]c(=S)n1CCN1CCC(=C(c2ccc(F)cc2)c2ccc(F)cc2)CC1	%	109
COc1cccc(-c2cc(=O)c3ccccc3o2)c1N	%	106
O=C1NC(=O)/C(=C\c2ccc3nccnc3c2)S1	%	124
COc1ccc(CNc2nc(N(CCO)CCO)nc3c2ncn3C(C)C)cc1	%	87
O=Nc1c(-c2c(O)[nH]c3ccccc23)[nH]c2ccccc12	%	93

API: the following record is the query input.
Task: Query: residual activity; subject: CCN(CC)CCCCN1c2ccccc2Oc2ccc(Cl)cc21
Result: 105

====

Biological target: Activated CDC42 kinase 1 (Homo sapiens)
Details: at 1 µM
hey, just use T if measured residual activity is less than 80%, otherwise F

Consider the worked cases shown below.
1) O=C1c2ccccc2-[n+]2ccc3c([nH]c4ccccc43)c21 T
2) N#C/C(=C(\N)Sc1ccc(N)cc1)c1ccccc1C(F)(F)F T
3) Cn1nc2c3c(cccc31)C(=O)c1ccccc1-2 T
4) O=Nc1c(-c2c(O)[nH]c3ccccc23)[nH]c2ccccc12 T

With those in mind, consider the next compound.
Task: Is 80% strictly greater than the compound's reported residual activity? compound: O=C(O)c1ccc2c3c1cccc3c(=O)n1c3ccccc3nc21
Result: F

====

Target: Tyrosine-protein kinase Fgr (Homo sapiens)
Conditions: at 1 µM
Reported residual activity values are given for each entry in this list.
Entry rule: numbers only, all in %.

Some entries whose results are on file:
1. O=c1c2ccccc2[nH]c(=S)n1CCN1CCC(=C(c2ccc(F)cc2)c2ccc(F)cc2)CC1 110
2. CN(C)c1ccc(/C=C2\C(=O)Nc3ccccc32)cc1 90
3. O=c1cc(-c2cccc3c2Sc2ccccc2S3)oc(N2CCOCC2)c1 99

Task: // returns reported residual activity for input O=C(Nc1cccc(Nc2nccc(Nc3cccc(C(F)(F)F)c3)n2)c1)C1CC1
Result: 59

Task: Which value of residual activity has been reported for C[C@@H](N)[C@H]1CC[C@H](C(=O)Nc2ccncc2)CC1 in the records?
Result: 103

Task: Quick one: residual activity of O=C1NC(=O)c2c1c1c3ccccc3[nH]c1c1[nH]c3cc(Br)ccc3c21 ?
Result: 100

Task: Which value of residual activity has been reported for COc1ccc(S(=O)(=O)N(CCO)c2ccccc2CN(C)C/C=C/c2ccc(Cl)cc2)cc1 in the records?
Result: 95

Task: Need residual activity of Cc1nc2cc3nc(-c4cccs4)cnc3cc2n1C , thanks.
Result: 109

Task: Suppose we examine the molecule Cc1nc(-c2ccccc2)c(-c2ccncc2)o1 ; what residual activity value has been reported?
Result: 95

Task: Give the measured residual activity of N#Cc1cnc2cnc(NCc3cccnc3)cc2c1Nc1ccc(F)c(Cl)c1 .
Result: 11

Each recorded value in this set is attributed to ChEMBL document CHEMBL2218924.
